// provenance: PubChem BioAssay (NCATS)

# assay_method_text: Quantitative High-Throughput drug screen in 47 multiple myeloma cell lines against the NCATS MIPE library collection: OCIMY5_PLB cell viability assay (AID 1918988); also: nearly all actives have a fitted effect of over 65% in size
# condition_summary: OCI-MY5 myeloma viability, ATP luminescence, 48 h; series mostly up to 45.8 µM
# Description: PI: Beverly A. Mock Ph.D. Laboratory of Cancer Biology and Genetics, Center for Cancer Research, National Cancer Institute, National Institute of Health, Bethesda, Maryland […] 5; Detector; 425V; Luminescence; Viewlux PerkinElmer. […] 1. […] Briefly, the corresponding myeloma cell lines were screened in 1,536-well plates with 500 cells, 5-uL per well for inhibition of cell viability (assessed by measuring ATP levels with CellTiterGlo). […]
Inconclusive results are not listed. Activity calls are given as the source filed them. Calls follow the shape of the dose curve; as a rule, active = well fitted cell-killing curve with a large enough effect; inconclusive = small, poorly fitted or top-dose-only effect, or effect the other way; inactive = no such curve, though single readings can be large or run the other way.
Pick from 1.0 = active, 0.0 = inactive when you respond.

IN: Hi, do you know how `CCOC(=O)N1CCC(=C2c3ccc(Cl)cc3CCc3cccnc32)CC1` came out in this test?
OUT: 1.0

IN: Check `CC(C)(N)C(=O)N[C@H](COCc1ccccc1)C(=O)N1CCC2(CC1)CN(S(C)(=O)=O)c1ccccc12` too.
OUT: 1.0

IN: Same question for COc1ccc(CC2=NN3C([C@@H](CCc4ccccc4)[C@@H](C)O)=NC(C)C3C(=O)N2)cc1OC (stereo not given in full) please.
OUT: 0.0

IN: Moving on to `Cc1cn[nH]c1`
OUT: 1.0

Would you kindly look at the next entry?
IN: Which outcome did this test record for the compound CCn1cc(C(=O)O)c(=O)c2cc(F)c(N3CCNC(C)C3)c(F)c21 (stereo not given) ?
OUT: 0.0
